# assay-protocol: Anticancer activity carried out in vitro against human T-lymphocyte CEM/0
# Type: functional
# conditions: CCRF-CEM
property-measured: IC50

Query: Report IC50, nothing else, for this compound: COC1=C(OC)C(O)(CCn2cnc3c(Cl)ncnc32)OC1=O (racemic)
Reply: > 120 µM

Query: Report IC50, nothing else, for this compound: Nc1ccn([C@@H]2O[C@H](CO)[C@@H](O)[C@@H]2O)c(=O)n1
Reply: 0.78 µM

Query: Report IC50, nothing else, for this compound: COC1=C(OC)/C(=C/C(n2cnc3c(Cl)ncnc32)P(=O)(OC)OC)OC1=O (stereo not given)
Reply: 96 µM

Query: Report IC50, nothing else, for this compound: COC1=C(OC)C(O)(CCn2cnc3c(N)ncnc32)OC1=O (stereo not given)
Reply: > 120 µM

Query: Report IC50, nothing else, for this compound: COC1=C(OCc2ccc([N+](=O)[O-])cc2)C(=O)O/C1=C/Cn1cnc2c(Cl)ncnc21
Reply: 5.04 µM
